Entry source: patent US20080249075A1

Tested on: T47D human breast carcinoma cells
Test: cells
Assay type: cell-based
Details: Homo sapiens, T47D, 48 h, read-out: PS [100 nM] (% stimulation)
Short version: activation at 0.1 µM at least 30% is Y, less is N.

Illustrative cases are given below, each with its answer.
In [3]: df
Out[3]:
                                   molecule  assigned_label
0  CC(=O)[C@H]1CC[C@H]2[C@@H]3C=CC4=CC(=O)CC[C@@]4(C)[C@@H]3[C@@H](OC(=O)Nc3ccc4c(c3)N(C)C(=O)CO4)C[C@]12C               N
1  CCO[C@]1(C(C)=O)CC[C@H]2[C@@H]3C=CC4=CC(=O)CC[C@@]4(C)[C@@H]3[C@@H](OC(=O)Nc3cccc(OC)c3)C[C@@]21C               N
2  COc1ccc(C(=O)O[C@H]2C[C@]3(C)[C@@H](C(C)=O)CC[C@H]3[C@@H]3C=CC4=CC(=O)CC[C@@]4(C)[C@@H]32)cc1               N
3  CC(=O)[C@H]1CC[C@H]2[C@@H]3C=CC4=CC(=O)CC[C@@]4(C)[C@@H]3[C@@H](OC(=O)Nc3ccc4[nH]ccc4c3)C[C@]12C               N

# next compound below
Lookup: Reported activation at 0.1 µM reaches at least 30% for COc1ccc(CNC(=O)O[C@H]2C[C@]3(C)[C@@H](C(C)=O)CC[C@H]3[C@@H]3C=CC4=CC(=O)CC[C@@]4(C)[C@@H]32)cc1 ?
Found: Y
